Some compounds, each annotated with its measured half-life at 1 μM.
Test: Human liver microsome stability
Assay type: in vitro ADME
Conditions: human, pooled human liver microsomes, pH 7.4, pooled human liver microsomes 0.5 mg/mL, 1 μM compound, NADPH 1 mM, 37° C., 0-60 min; read-out: HLM Metabolism t1/2
Protocol: Human Liver Microsome Stability t½ (Min) of Compounds of Formula (I) […] All incubations are performed singularly for each compound. […] The internal standard was added (1:1 supernatant to internal standard solution) and samples were analyzed using standard LC-MS conditions. From a plot of ln peak area ratio (compound peak area/internal standard peak area) against time, the gradient of the line is determined. […]

- CC(c1cn(C2CC2)c(=O)cn1)N1C[C@@H](C)n2nc3c(c2C1=O)CN(C(=O)c1ccc(Cl)c(Cl)c1)[C@H](C)C3 (single isomer, unassigned) [Compound 56A]: > 3 h
- CC(c1ccc(C(C)(C)O)nc1)N1C[C@@H](C)n2nc3c(c2C1=O)CN(C(=O)c1ccc(Cl)c(F)c1F)[C@H](C)C3 (single isomer, unassigned) [Compound 61A]: > 3 h

Now, please, on to the next compound.
Ask: Look up half-life at 1 μM for this compound: CC(c1ccc(C(F)(F)F)nc1)N1C[C@@H](C)n2nc3c(c2C1=O)CN(C(=O)c1ccc(Cl)c(C#N)c1)[C@H](C)C3 (single isomer, unassigned) [Compound 12A]
Result: > 3 h

---

tested on: HepG2 or HepG2.117 cells; test: Cytotoxicity, ATPlite Luminescence Assay; format: cell-based, human; details: 3-days incubation unless marked with *
# CC50 annotations

Some solved cases for reference:
• CC(c1cn(C2CC2)c(=O)cn1)N1C[C@@H](C)n2nc3c(c2C1=O)CN(C(=O)c1ccc(Cl)c(Cl)c1)[C@H](C)C3 (single isomer, unassigned) [Compound 56B] = > 50 µM
• CC(c1ccn(CC(F)(F)F)n1)N1C[C@@H](C)n2nc3c(c2C1=O)CN(C(=O)c1ccc(Cl)c(C#N)c1)[C@H](C)C3 (single isomer, unassigned) [Compound 42A] = > 50 µM
• CC(c1ccccn1)N1C[C@@H](C)n2nc3c(c2C1=O)CN(C(=O)c1ccc(Cl)c(Cl)c1)[C@H](C)C3 (single isomer, unassigned) [Compound 65B] = > 50 µM
• CC(c1cc(F)c(=O)n(C2CC2)c1)N1C[C@@H](C)n2nc3c(c2C1=O)CN(C(=O)c1ccc(Cl)c(Cl)c1)[C@H](C)C3 (single isomer, unassigned) [Compound 46B] = > 50 µM
• CC(c1ccn(C(C)C)c(=O)c1)N1C[C@@H](C)n2nc3c(c2C1=O)CN(C(=O)c1ccc(Cl)c(C(F)(F)F)c1)[C@H](C)C3 (single isomer, unassigned) [Compound 47B] = > 50 µM
• CC(c1cnn(C2CC2)c(=O)c1)N1C[C@@H](C)n2nc3c(c2C1=O)CN(C(=O)c1ccc(Cl)c(C(F)(F)F)c1)[C@H](C)C3 (single isomer, unassigned) [Compound 54B] = > 50 µM
• CC(c1cnc(C(F)(F)F)cn1)N1C[C@@H](C)n2nc3c(c2C1=O)CN(C(=O)c1ccc(Cl)c(Cl)c1)[C@H](C)C3 (single isomer, unassigned) [Compound 7B] = 16.9 µM
• Cc1ncnn1-c1ccc(C(C)N2C[C@@H](C)n3nc4c(c3C2=O)CN(C(=O)c2ccc(Cl)c(Cl)c2)[C@H](C)C4)cn1 (relative stereo) [Compound 25A] = > 50 µM
• Cc1ncc(C(C)N2C[C@@H](C)n3nc4c(c3C2=O)CN(C(=O)c2ccc(Cl)c(Cl)c2)[C@H](C)C4)cn1 (single isomer, unassigned) = > 50 µM
• CC(c1ccnc(OC(F)F)c1)N1C[C@@H](C)n2nc3c(c2C1=O)CN(C(=O)c1ccc(Cl)c(C(F)(F)F)c1)[C@H](C)C3 (single isomer, unassigned) [Compound 50B] = 10.2 µM

Ask: For the molecule Cc1nnn(-c2ccc(C(C)N3C[C@@H](C)n4nc5c(c4C3=O)CN(C(=O)c3ccc(Cl)c(Cl)c3)[C@H](C)C5)cn2)n1 (single isomer, unassigned) [Compound 26B] , what CC50 is on record?
Result: > 50 µM

Ask: # input molecule: CC(c1cnc(NC2CC2)nc1)N1C[C@@H](C)n2nc3c(c2C1=O)CN(C(=O)c1ccc(Cl)c(Cl)c1)[C@H](C)C3 (single isomer, unassigned) [Compound 37B] ; wanted: its CC50
Result: > 50 µM

Ask: Look up CC50: CC(c1cnc(C(F)(F)F)cn1)N1C[C@@H](C)n2nc3c(c2C1=O)CN(C(=O)c1ccc(Cl)c(Cl)c1)[C@H](C)C3 (single isomer, unassigned) [Compound 7A]
Result: 44.8 µM

Source of measurements: patent US20240287070A1
